Origin of values: patent US9149038B2

system: Key Grass and Sedge Weeds as well as Grass Crops; assay: Post-Emergent Test II: postemergent herbicidal activity, visual rating after 14 d (Table 8); assay type: in vivo; settings: post-emergence, 336 h, maize, corn (Zea mays), 35 g ai/ha, read-out: Visual Growth Reduction (%) 14 Days After Application ZEAMX
pest or weed control at 35 g/ha listing for selected molecules.
METRIC NAME: pest or weed control at 35 g/ha

> print(dat)
                                   molecule                      metric.name  observed.result
1  COC(=O)c1nc(-c2ccc3c(c2F)OC(F)(F)O3)cc(N)c1Cl [Compound 37]  pest or weed control at 35 g/ha        60 to 74%
2  COC(=O)c1nc(-c2ccc3c(c2)OC(F)(F)O3)c(Cl)c(N)c1Cl [Compound 1]  pest or weed control at 35 g/ha        60 to 74%
3  COC(=O)c1nc(-c2cc3c(cc2Cl)OC(F)(F)O3)cc(N)c1Cl [Compound 40]  pest or weed control at 35 g/ha         0 to 29%
4  COc1c(C(=O)O)nc(-c2ccc3c(c2)OC(F)(F)O3)c(F)c1N [Compound 25]  pest or weed control at 35 g/ha        60 to 74%
5  COC(=O)c1nc(-c2ccc3c(c2)OC(C)O3)c(F)c(N)c1Cl (stereo not drawn) [Compound 20]  pest or weed control at 35 g/ha        30 to 44%
6  COC(=O)c1nc(-c2cccc3c2OCO3)c(F)c(N)c1Cl [Compound 71]  pest or weed control at 35 g/ha         0 to 29%
7  COC(=O)c1nc(-c2cc3c(cc2Cl)OC(F)(F)O3)c(F)c(N)c1Cl [Compound 12]  pest or weed control at 35 g/ha         0 to 29%
8  Nc1cc(-c2ccc3c(c2F)OC(F)(F)O3)nc(C(=O)O)c1Cl [Compound 41]  pest or weed control at 35 g/ha        60 to 74%
9  COC(=O)c1nc(-c2ccc3c(c2OC)OC(F)(F)O3)cc(N)c1Cl [Compound 47]  pest or weed control at 35 g/ha         0 to 29%
